Provenance of the data: paper PMC9114115

Tested on: P. aeruginosa PAO1-Pore cells
run-description: LC–MS quantification of intracellular accumulation, PAO1-Pore;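 further: slope of accumulation versus external concentration fitted as a line through zero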
recorded-conditions: 1 min incubation, 10-80 µM
Counter-ions that a name gives are not always drawn.
quantity: Concentration slopes of accumulation, PAO1-Pore_1 min

Query: Record request: Concentration slopes of accumulation, PAO1-Pore_1 min value, item CC1CCc2c(N3CCC(O)CC3)c(F)cc3c(=O)c(C(=O)O)cn1c23 (stereo not drawn)
Reply: 11.41

Query: CCn1cc(C(=O)O)c(=O)c2cc(F)c(N3CCN(C)CC3)cc21 [OU-0000619, PEFLOXACINE MESYLATE] ?
Reply: 25.74

Query: CNC(=C[N+](=O)[O-])NCCSCc1ccc(CN(C)C)o1 [OU-0000840, Ranitidine HCl] ?
Reply: 4.44

Query: CCn1cc(C(=O)O)c(=O)c2cc(F)c(N3CCNCC3)cc21 ?
Reply: 31.44

Query: COc1ccc2cc1Oc1ccc(cc1)C[C@H]1c3cc(c(OC)cc3CCN1C)Oc1c(OC)c(OC)cc3c1[C@H](C2)N(C)CC3 ?
Reply: 10.07

Query: O=C1NC[C@@H](CCC2CCCCC2)N[C@H]1Cc1cc(F)cc(F)c1 ?
Reply: 20.38

Query: N[C@@H](CC(=O)N1CCn2c(nnc2C(F)(F)F)C1)Cc1cc(F)c(F)cc1F [OU-0000833, Sitagliptin Monophosphate Monohydrate] ?
Reply: 4.16

Query: CCN1CCN(c2cc3c(cc2F)c(=O)c(C(=O)O)cn3C2CC2)CC1 ?
Reply: 26.71

Query: C=CCN1CC(CCCC)N(C(=O)OC(C)(C)C)C(Cc2ccccc2)C1=O (stereo not drawn) ?
Reply: 4.02

Query: CN1C[C@H](C(=O)N[C@]2(C)O[C@@]3(O)[C@@H]4CCCN4C(=O)[C@H](Cc4ccccc4)N3C2=O)C=C2c3cccc4[nH]cc(c34)C[C@H]21 [OU-0000834, Ergotamine Tartrate] ?
Reply: 17.94

Query: CS(=O)(=O)O.C[C@H]1COc2c(C3(N)CC3)c(F)cc3c(=O)c(C(=O)O)cn1c23 [OU-0000627, PAZUFLOXACIN MESYLATE] ?
Reply: 5.79

Query: COc1c(N2CCNC(C)C2)c(F)cc2c(=O)c(C(=O)O)cn(C3CC3)c12 (stereo not drawn) ?
Reply: 2.29

Query: CC1CN=C(c2ccc(NC(=O)Nc3ccc(C4=NCCN4)cc3)cc2)N1.Cl (stereo not drawn) ?
Reply: 2.72

Query: CN1CCN(c2cc3c(cc2F)c(=O)c(C(=O)O)cn3-c2ccc(F)cc2)CC1 ?
Reply: 8.04

Query: COCCCC/C(=N\OCCN)c1ccc(C(F)(F)F)cc1 ?
Reply: 6.04

* * *

System: P. aeruginosa
recorded-conditions: sheet "Good" permeators; all listed compounds are good permeators
Assignment: determine reported Cluster of the identified "good" permeators for the given compounds.
Reply: number alone, nothing else.

Query: Record request: Cluster of the identified "good" permeators value, item CCn1cc(C(=O)O)c(=O)c2cc(F)c(N3CCNCC3)cc21
Reply: 3

Query: CC(=O)NC[C@H]1CN(c2ccc(N3CCOCC3)c(F)c2)C(=O)O1 ?
Reply: 3

Query: CC1CN=C(c2ccc(NC(=O)Nc3ccc(C4=NCCN4)cc3)cc2)N1.Cl (centres unmarked) ?
Reply: 1

Query: COc1c(N2CCNC(C)C2)c(F)cc2c(=O)c(C(=O)O)cn(C3CC3)c12 (centres unmarked) ?
Reply: 1

Query: Cc1cc(C)nc(NS(=O)(=O)c2ccc(N)cc2)n1 ?
Reply: 1

Query: C=CCN1CC(CCCC)N(C(=O)OC(C)(C)C)C(Cc2ccccc2)C1=O (centres unmarked) ?
Reply: 1

Query: Cc1oc(=O)oc1CN1CCN(c2cc3c(cc2F)c(=O)c(C(=O)O)c2n3C(C)S2)CC1 (centres unmarked) ?
Reply: 3

Query: O=C1N[C@@H](Cc2c[nH]c3ccccc23)C(=O)N2CCC[C@@H]12 ?
Reply: 1

* * *

System: P. aeruginosa PΔ3 cells;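 further: slope of accumulation versus external concentration fitted as a line through zero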
recorded-conditions: 1 min incubation, 10-80 µM
Where a name gives a salt, the structure may show the parent alone.
Assignment: determine reported Concentration slopes of accumulation, PΔ3_1 min for the given compounds.

Query: Please provide the recorded Concentration slopes of accumulation, PΔ3_1 min for N[C@@H](CC(=O)N1CCn2c(nnc2C(F)(F)F)C1)Cc1cc(F)c(F)cc1F [OU-0000833, Sitagliptin Monophosphate Monohydrate] , tested on P. aeruginosa PΔ3 cells.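 Further: slope of accumulation versus external concentration fitted as a line through zero.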
Reply: 4.36

Query: CC(=O)NC[C@H]1CN(c2ccc(N3CCOCC3)c(F)c2)C(=O)O1 ?
Reply: 39.20

Query: O=C(O)c1cn(C2CC2)c2cc(N3CCNCC3)c(F)cc2c1=O ?
Reply: 2.99

Query: C[C@H]1COc2c(N3CCN(C)CC3)c(F)cc3c(=O)c(C(=O)O)cn1c23 ?
Reply: 2.43

Query: Cc1oc(=O)oc1CN1CCN(c2cc3c(cc2F)c(=O)c(C(=O)O)c2n3C(C)S2)CC1 (stereo not drawn) ?
Reply: 7.35

Query: C[C@@H]1CN(c2c(F)c(N)c3c(=O)c(C(=O)O)cn(C4CC4)c3c2F)C[C@H](C)N1 ?
Reply: 5.48

Query: CCN1CCN(c2cc3c(cc2F)c(=O)c(C(=O)O)cn3C2CC2)CC1 ?
Reply: 14.05

Query: CN1C[C@H](C(=O)N[C@]2(C)O[C@@]3(O)[C@@H]4CCCN4C(=O)[C@H](Cc4ccccc4)N3C2=O)C=C2c3cccc4[nH]cc(c34)C[C@H]21 [OU-0000834, Ergotamine Tartrate] ?
Reply: 8.34

Query: CC(C)(C)OC(=O)N1[C@H](CCC2CCCCC2)CNC(=O)[C@@H]1Cc1cc(F)cc(F)c1 ?
Reply: 30.64

Query: CCn1cc(C(=O)O)c(=O)c2cc(F)c(N3CCNC(C)C3)c(F)c21 (stereo not drawn) ?
Reply: 2.91

Query: CC(CCc1ccccc1)NCC(O)c1ccc(O)c(C(N)=O)c1 (stereo not drawn) [OU-0000748, Labetalol HCl] ?
Reply: 17.87

Query: O=C1CC2(CCCC2)CC(=O)N1CCCCN1CCN(c2ncccn2)CC1 [OU-0000735, Buspirone HCl] ?
Reply: 6.98

Query: CC[C@H]1CN2CCc3cc(OC)c(OC)cc3[C@@H]2C[C@@H]1C[C@H]1NCCc2cc(OC)c(OC)cc21.Cl.Cl [OU-0032504, Emetine DIHCl] ?
Reply: 1.07

Query: COc1cnc(NS(=O)(=O)c2ccc(N)cc2)nc1 ?
Reply: 0.87

Query: O=C1NC[C@@H](CCC2CCCCC2)N[C@H]1Cc1cc(F)cc(F)c1 ?
Reply: 14.00

* * *

Test system: P. aeruginosa PAO1-Pore cells
run-description: LC–MS quantification of intracellular accumulation, PAO1-Pore;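 further: slope of accumulation versus external concentration fitted as a line through zero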
recorded-conditions: 40 min incubation, 10-80 µM
Criterion: Concentration slopes of accumulation, PAO1-Pore_40 min strictly less than 4. Met: fulfilled. Not met: not fulfilled.

Query: Identify whether the molecule CC(Cc1ccc(O)cc1)NCC(O)c1cc(O)cc(O)c1 (stereo not shown) records Concentration slopes of accumulation, PAO1-Pore_40 min below 4.
Reply: fulfilled

Query: CCn1cc(C(=O)O)c(=O)c2cc3c(cc21)OCO3 ?
Reply: not fulfilled

Query: CCN1CCN(c2cc3c(cc2F)c(=O)c(C(=O)O)cn3C2CC2)CC1 ?
Reply: not fulfilled

Query: COc1ccc2cc1Oc1ccc(cc1)C[C@H]1c3cc(c(OC)cc3CCN1C)Oc1c(OC)c(OC)cc3c1[C@H](C2)N(C)CC3 ?
Reply: not fulfilled

Query: CC[C@H]1CN2CCc3cc(OC)c(OC)cc3[C@@H]2C[C@@H]1C[C@H]1NCCc2cc(OC)c(OC)cc21.Cl.Cl [OU-0032504, Emetine DIHCl] ?
Reply: fulfilled

Query: CN1CCN(c2cc3c(cc2F)c(=O)c(C(=O)O)cn3-c2ccc(F)cc2)CC1 ?
Reply: not fulfilled

* * *

System: P. aeruginosa PAO1-Pore
run-description: MIC by two-fold dilution, hyperporinated PAO1-Pore
Assay type: cell-based, Pseudomonas aeruginosa
recorded-conditions: Pseudomonas aeruginosa, PAO1, read-out: MICs
Where a name gives a salt, the structure may show the parent alone.
quantity: MIC

Query: Please provide the recorded MIC for CC(=O)NC[C@H]1CN(c2ccc(N3CCOCC3)c(F)c2)C(=O)O1 [OU-0031508, linezolid] , tested on P. aeruginosa PAO1-Pore.
Reply: 200 µM

Query: CCn1cc(C(=O)O)c(=O)c2cc(F)c(N3CCNC(C)C3)c(F)c21 (stereo not shown) [OU-0000616, LOMEFLOXACIN] ?
Reply: 0.125 µM

Query: Cc1noc(NS(=O)(=O)c2ccc(N)cc2)c1C [Sulfisoxazole] ?
Reply: > 200 µM

Query: COc1c(N2C[C@@H]3CCCN[C@@H]3C2)c(F)cc2c(=O)c(C(=O)O)cn(C3CC3)c12 [OU-0000626, MOXIFLOXACIN HYDROCHLORIDE] ?
Reply: 0.03 µg/mL
